# test-target: T1, IL-1β (UniProt P01584 117-269)
# T1 construct: Antigen immobilised on the Biacore chip
# protocol-description: Biacore, periplasmic extract
Measured fold difference in affinity vs original values are reported for all entries that follow.
Entry rule: numbers only, all in fold.

Completed entries (count: 2):
binder	fold difference in affinity vs original, fold
XPA23 light chain H49F (Fab, V domains shown) VH: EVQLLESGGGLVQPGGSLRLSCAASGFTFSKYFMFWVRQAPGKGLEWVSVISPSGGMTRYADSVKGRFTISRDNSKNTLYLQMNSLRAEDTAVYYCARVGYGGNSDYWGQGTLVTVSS VL: DIQMTQSPSSVSASVGDRLTIICRASQDINRWLAWYQQTPGNAPKLLIFSATSLQSGVPSRFSGSGSGTDFTLTINSLQPEDFATYYCQQADSFPLTFGGGTKVEIK	0.5
XPA23 light chain R31I (Fab, V domains shown) VH: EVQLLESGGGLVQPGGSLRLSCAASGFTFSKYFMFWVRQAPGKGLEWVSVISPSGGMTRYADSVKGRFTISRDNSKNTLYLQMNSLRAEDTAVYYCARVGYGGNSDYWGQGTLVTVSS VL: DIQMTQSPSSVSASVGDRLTIICRASQDINIWLAWYQQTPGNAPKLLIHSATSLQSGVPSRFSGSGSGTDFTLTINSLQPEDFATYYCQQADSFPLTFGGGTKVEIK	0.68

Moving on to another binder below.
Query: fold difference in affinity vs original; subject: XPA23 light chain R31V (Fab, V domains shown) VH: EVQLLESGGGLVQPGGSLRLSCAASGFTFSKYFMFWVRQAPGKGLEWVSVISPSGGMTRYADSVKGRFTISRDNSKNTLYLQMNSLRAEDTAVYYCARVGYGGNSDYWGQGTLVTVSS VL: DIQMTQSPSSVSASVGDRLTIICRASQDINVWLAWYQQTPGNAPKLLIHSATSLQSGVPSRFSGSGSGTDFTLTINSLQPEDFATYYCQQADSFPLTFGGGTKVEIK 0.44
